System: MV4;11
Experiment: Cell Titer Glo cell viability assay, 48 h
Type: cell-based, human
Details: Homo sapiens; 48 h; mean of 2 independent experiments; 0 = less than 10 nM, cell line not given; read-out: IC50 of inhibitors on cell lines, m (mean)
Readings of pIC50 for the listed compounds
Lab note: report pIC50 as minus log10 of the concentration in molar units, number only.

Some entries whose results are on file:
{"compound": "CCc1nc(-c2cccc(C)c2)c(-c2ccnc(NC(=O)c3ccccc3)c2)s1", "pIC50": 5.11}
{"compound": "CN(C)CCOc1cc(-c2cn[nH]c2)ccc1NC(=O)C1COc2ccccc2O1 (centres unmarked)", "pIC50": 5.58}
{"compound": "Cc1cc(Nc2cc(N3CCN(C)CC3)nc(Sc3ccc(NC(=O)C4CC4)cc3)n2)[nH]n1", "pIC50": 7.30}
{"compound": "CCN(CC)CCNC(=O)c1c(C)[nH]c(/C=C2\\C(=O)Nc3ccc(F)cc32)c1C", "pIC50": 8.00}
{"compound": "Cc1[nH]c(/C=C2\\C(=O)Nc3ccccc32)c(C)c1CCC(=O)O", "pIC50": 5.29}

Fill in the blank: the reported pIC50 of "CN(C)C/C=C/C(=O)Nc1cc2c(Nc3ccc(F)c(Cl)c3)ncnc2cc1O[C@H]1CCOC1" is ____.
6.36

Give its pIC50 value. Item: "Oc1cccc(-c2nc(N3CCOCC3)c3oc4ncccc4c3n2)c1"
6.70

Can you share its pIC50? I mean this compound: "CN(C)CCOc1ccc(-c2nc(-c3ccncc3)c(-c3ccc4c(c3)CC/C4=N\O)[nH]2)cc1"
5.59

###

Test system: HEL.92.1.7
Assay: Cell Titer Glo cell viability assay, 48 h
Assay type: cell-based, human
Conditions: read-out: IC50 of inhibitors on cell lines, m (mean)
Protocol: The activity of the kinase inhibitor collection against a panel of human leukemia cell lines was determined in cell viability assays run over 48 h using the Cell Titer Glo reagent. Figure 1 Effects of kinase inhibition on the proliferation of leukemia cells A. Human leukemia cell lines were treated with duplicate serial dilutions of kinase inhibitors and the effect on cell viability was determined by Cell Titer Glo assay after 48 hours. […]
parameter: pIC50
Interpret pIC50 as the negative base-10 log of the concentration measured in mol/L.

Quick check: pIC50 of CC(=O)Nc1nc(C)c(-c2ccc(Cl)c(S(=O)(=O)NCCO)c2)s1 [PIK-93] ?
5.09

###

System: MV4;11
Experiment: Cell Titer Glo cell viability assay, 48 h
Assay type: cell-based, human
Settings: Homo sapiens; 48 h; mean of 2 independent experiments; 0 = less than 10 nM, cell line not given; read-out: IC50 of inhibitors on cell lines, m (mean)
# reported pIC50; entries follow
Reminder that pIC50 is minus the log10 of a molar concentration.

Recorded results for 3 molecules are shown here.
{"compound structure": "COc1cc2c(Nc3ccc(Br)cc3F)ncnc2cc1OCC1CCN(C)CC1", "pIC50": 6.07}
{"compound structure": "CC(C)[C@H](CO)Nc1nc(Nc2ccc(C(=O)O)c(Cl)c2)c2ncn(C(C)C)c2n1", "pIC50": 5.04}
{"compound structure": "CNC(=O)c1cc(Oc2ccc(NC(=O)Nc3ccc(Cl)c(C(F)(F)F)c3)cc2)ccn1", "pIC50": 8.00}

Look at this molecule and give its reported pIC50. "OCCC#Cc1nc(-c2ccc(F)cc2)c(-c2ccncc2)n1CCCc1ccccc1"
5.08

GET /values?readout=pIC50&item= "Oc1ccc(-c2nc(-c3ccncc3)c(-c3ccc(F)cc3)[nH]2)cc1"
5.15

Item "COc1cc2c(N3CCN(C(=O)Nc4ccc(OC(C)C)cc4)CC3)ncnc2cc1OCCCN1CCCCC1" has what recorded pIC50?
7.10

What value of pIC50 has been reported for the following molecule? "COc1nccc(-c2c(-c3ccc(F)cc3)ncn2C2CCNCC2)n1"
5.21

Fill blank: measured pIC50 of the molecule "O=C(Nc1cccc(Cl)c1)Nc1ncc(CCNc2ncnc3ccsc23)s1" is ____.
8.00

Given the molecule "CC(C)(C)c1cnc(CSc2cnc(NC(=O)C3CCNCC3)s2)o1" , what is its reported pIC50?
6.82

From: paper PMC5601625
